system tested: T1, mouse IL-17A (mouse, UniProt Q62386 26-158, limits assumed)
T1 construct: Purified recombinant protein in SPR; also called MuIL-17A; murine IL-17A
T1 sequence (looked up): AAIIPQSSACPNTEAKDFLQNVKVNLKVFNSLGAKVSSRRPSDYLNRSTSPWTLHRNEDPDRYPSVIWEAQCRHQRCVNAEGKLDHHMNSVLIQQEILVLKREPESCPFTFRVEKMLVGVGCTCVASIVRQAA
method summary: SPR (Biacore 3000), antibody captured by anti-Fc, antigen in solution;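 also: purified recombinant IL-17 antigens flowed over captured antibodies in HBS-EP buffer, global Langmuir one-to-one fit of association and dissociation phases, KD derived from koff over kon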
pKd: −log10 of the molar value.
metric name: pKd

1. IL17-h5C5.8 (antibody, V domains shown, IgG; constant regions not specified; also called h5C5.8 (VH.1-Vk.1a)) VH: EVQLVQSGAEVKKPGASVKVSCKASGYTFTDYEFHWVRQAPGQGLEWMGVIHPGNGGTAYNQNFRDRVTITADKSTSTAYMELSSLRSEDTAVYYCARFLTYEGYFDYWGQGTLVTVSS VL: DIQMTQSPSSLSASVGDRVTITCKASQSVSIDVGWFQQKPGKSPKLLIYHASNRYTGVPSRFSGSGSGTDFTFTISSLQPEDFATYFCQQDYSSPYTFGQGTKLEIKR; 8.73
2. IL17-h10F7.11 (antibody, V domains shown, IgG; constant regions not specified; also called h10F7.11 (VH.1a-Vk.2a)) VH: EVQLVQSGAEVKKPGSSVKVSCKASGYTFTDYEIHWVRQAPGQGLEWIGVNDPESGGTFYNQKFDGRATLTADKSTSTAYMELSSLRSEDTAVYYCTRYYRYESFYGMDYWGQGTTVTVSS VL: EIVLTQSPDFQSVTPKEKVTITCSASSSISYIYWFQQKPDQSPKRWIYATFELASGVPSRFSGSGSGTDYTLTINSLEAEDAATYYCHQRSSYPWTFGQGTKLEIKR; 8.66
3. IL17-h5C5.15 (antibody, V domains shown, IgG; constant regions not specified; also called h5C5.15 (VH.1b-Vk.3a)) VH: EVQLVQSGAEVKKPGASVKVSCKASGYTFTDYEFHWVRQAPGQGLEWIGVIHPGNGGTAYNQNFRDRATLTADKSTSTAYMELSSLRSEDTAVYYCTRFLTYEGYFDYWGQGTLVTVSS VL: EIVMTQSPATLSVSPGERATLSCKASQSVSIDVGWFQQKPGQSPRLLIYHASNRYTGVPARFSGSGSGTDFTLTISSLQPEDFAVYFCQQDYSSPYTFGQGTKLEIKR; 8.55
4. IL17-h5C5.14 (antibody, V domains shown, IgG; constant regions not specified; also called h5C5.14 (VH.1-Vk.3a)) VH: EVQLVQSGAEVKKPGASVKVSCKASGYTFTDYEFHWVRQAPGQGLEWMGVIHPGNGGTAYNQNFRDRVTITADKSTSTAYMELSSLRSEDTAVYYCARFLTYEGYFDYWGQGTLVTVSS VL: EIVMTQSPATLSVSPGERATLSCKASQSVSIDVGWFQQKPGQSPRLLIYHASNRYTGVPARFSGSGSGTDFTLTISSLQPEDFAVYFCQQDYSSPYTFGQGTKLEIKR; 8.73
5. IL17-h5C5.9 (antibody, V domains shown, IgG; constant regions not specified; also called h5C5.9 (VH.1b-Vk.1a)) VH: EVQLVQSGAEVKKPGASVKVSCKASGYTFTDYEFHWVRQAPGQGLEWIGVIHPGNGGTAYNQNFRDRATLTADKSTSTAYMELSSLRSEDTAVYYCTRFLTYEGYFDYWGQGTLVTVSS VL: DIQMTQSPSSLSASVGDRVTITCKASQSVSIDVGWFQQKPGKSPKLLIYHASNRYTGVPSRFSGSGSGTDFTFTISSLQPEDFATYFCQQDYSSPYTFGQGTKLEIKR; 8.68
6. IL17-h5C5.18 (antibody, V domains shown, IgG; constant regions not specified; also called h5C5.18 (VH.1b-Vk.1c)) VH: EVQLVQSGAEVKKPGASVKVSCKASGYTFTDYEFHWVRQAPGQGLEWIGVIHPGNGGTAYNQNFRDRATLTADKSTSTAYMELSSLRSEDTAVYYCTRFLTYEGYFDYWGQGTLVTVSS VL: NIVMTQSPSSLSASVGDRVTITCKASQSVSIDVGWFQQKPGKSPKLLIYHASNRYTGVPSRFSGSGSGTDFTFTISSLQPEDFATYFCQQDYSSPYTFGQGTKLEIKR; 8.54
7. IL17-h5C5.21 (antibody, V domains shown, IgG; constant regions not specified; also called h5C5.21 (VH.1b-Vk.3c)) VH: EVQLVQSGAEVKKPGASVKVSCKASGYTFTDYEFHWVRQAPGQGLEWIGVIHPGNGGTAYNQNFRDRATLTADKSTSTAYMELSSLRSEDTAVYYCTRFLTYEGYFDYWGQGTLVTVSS VL: NIVMTQSPATLSVSPGERATLSCKASQSVSIDVGWFQQKPGQSPRLLIYHASNRYTGVPARFSGSGSGTDFTLTISSLQPEDFAVYFCQQDYSSPYTFGQGTKLEIKR; 8.51
8. IL17-h10F7.6 (antibody, V domains shown, IgG; constant regions not specified; also called h10F7.6 (VH.1a-Vk.1a)) VH: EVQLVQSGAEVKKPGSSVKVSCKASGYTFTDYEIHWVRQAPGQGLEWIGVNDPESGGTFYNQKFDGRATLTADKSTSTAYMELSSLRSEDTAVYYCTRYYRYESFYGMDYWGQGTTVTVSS VL: DIQLTQSPSSLSASVGDRVTITCSASSSISYIYWFQQKPGKSPKRWIYATFELASGVPSRFSGSGSGTDYTLTISSLQPEDFATYYCHQRSSYPWTFGQGTKLEIKR; 9.01
